Hey, just so you know, these numbers are from paper PMC12040169.

Listed next: entries and their corresponding viability at 28.5 h, 10 µM.
# Experiment Notes: in vitro
# Applied Conditions: human, hela cells, % viability
Property: viability at 28.5 h, 10 µM (%)

* O=C(COc1ccc(F)cc1)N1CCC2(CCNC2)C1 (stereo not shown) [CBK156691C] | 92.5
* O=C1/C(=C/c2cn(Cc3cccc4ccccc34)c3ccccc23)C(O)=NN1c1ccccc1 | 94.7
* Cc1cc2oc(C(=O)Nc3sc4c(c3C#N)CCCC4)c(C)c2cc1C | 103
* O=C(CN1C(=O)CSc2ccccc21)Nc1ccccc1C(=O)N1CCOCC1 | 104
* Cc1noc(C)c1S(=O)(=O)Nc1c(C(=O)Nc2ccc(F)cc2)[nH]c2ccccc12 | 119
* COc1ccc([C@@]23CC[C@@H](Nc4nc(-c5ccc(Br)cc5)cs4)C[C@@H]2N(C)CC3)cc1OC | 87.7
* COc1ccccc1Nc1nc(N2CCOCC2)nc(N2CCOCC2)n1 | 111
* CCN1C(=O)/C(=C/c2cc(Br)ccc2OCc2cccc([N+](=O)[O-])c2)NC1=S | 93.6
* CC(C)C(=O)NC(C)c1nc(-c2ccncc2)n[nH]1 (stereo not shown) | 113
* CCCCc1cc(=O)oc2cc(OC(C)C(=O)O)c(Cl)cc12 (stereo not shown) | 95.7
* Cc1noc([C@@H]2C[C@H](NC(=O)Nc3cccc(C#N)c3)CN2C)n1 | 104
* CCOC(=O)CNC(=O)C1Cc2ccccc2CN1S(=O)(=O)c1cccs1 (stereo not shown) | 103
* Cn1cnnc1C1CCN(C(=O)CC2OCCc3sccc32)CC1 (stereo not shown) | 90.2
* O=C(COc1ccc(Cl)cc1Cl)Nc1ccc2cc[nH]c2c1 | 92.5
* O=C(Cc1ccccc1)N1CCc2c([nH]c3ccccc23)C12CCNC2 (stereo not shown) | 98.9
* O=C(O)/C=C/c1cccc(-c2cn3ccnc3c(NCc3cccnc3)n2)c1 | 98.8
* CCOC(=O)c1cccnc1-c1cncnc1 | 118
* CC(C)[C@H](CO)Nc1nc(-c2ccc(F)c(Cl)c2)cnc1N | 109
* COc1ccc2oc(=O)c(C(=O)Nc3ccc(C(=O)O)cc3)cc2c1 | 98.4

====

# Experiment Notes: in vitro
# Applied Conditions: human, hela cells, % viability
Listed next: entries and their corresponding viability at 28.5 h, 10 µM.
Property: viability at 28.5 h, 10 µM (%)

- O=C(CCCn1cccn1)N1CCOC(c2ccc(Cl)c(Cl)c2)C1 (stereo not shown): 98.5
- CCCc1[nH]nc(O)c1Cc1ccccc1CS(=O)(=O)c1ccccc1: 87.8
- O=C(CCc1ccc(F)cc1)N1CCC(c2cccc(Cc3ccccc3)n2)CC1: 114
- Cc1cc(C)c(NC(=O)CSc2n[nH]c(=O)n2C2CC2)c(C)c1: 95
- Cc1cc(O)c(-c2n[nH]c3c2C(c2ccccc2F)N(Cc2cccnc2)C3=O)cc1C (stereo not shown): 89.8
- Cc1nc[nH]c1CN1CCCN(S(=O)(=O)c2ccc(-n3cnc(Cl)c3Cl)cc2)CC1: 91.7
- Cc1nn(Cc2ccc(C(=O)Nc3c(C)nn(Cc4ccc(Cl)c(Cl)c4)c3C)o2)c(C)c1Br: 83.5
- Cn1ccc(C(=O)NC(Cc2ccsc2)c2nccs2)cc1=O (stereo not shown): 87
- COCCNc1nccnc1-c1cccc(C(F)(F)F)c1: 89.7
- COc1ccc(C(NC(C)=O)c2nccc3cc(OC)c(OC)cc23)cc1OC (stereo not shown): 94.6
- OCCCn1cc(CN2CCC(CO)C2)c2ccccc21 (stereo not shown): 98.6
- Cc1nc(C2CCN(C(=O)C3CCC3)CC2)nc2c1CCCN2CCc1ccccc1: 97.3
- O=C(NCc1ccc2c(c1)OCO2)N1CCCCC1CO (stereo not shown): 89.3
- Cn1c(=O)c2c(O)cc(=O)n(Cc3ccccc3)c2n(C)c1=O: 81.5
- O=C(O)c1ccsc1NS(=O)(=O)c1ccc(Oc2ccccc2)cc1: 89.8
- COC1CCCN(Cc2cncn2C2CCCCC2)C1 (stereo not shown): 101
- COC(=O)c1ccc(NC(=O)COn2nnc3ccc([N+](=O)[O-])cc32)cc1: 94.3
- Cc1nc(C)c(C(=O)N2CCC(c3cc4ncccc4[nH]3)CC2)s1: 101
- CCOC(=O)c1[nH]c2ccccc2c1NC(=O)Cc1c(Cl)cccc1Cl: 95.6
